Measured pMet inhibition in H441 cells IC50 of individual entries
Target Desc: human c-Met on cells (NCI-H441, NCI-H292, U87-MG) (human, UniProt P08581 25-1390)
Sequence (P08581 other isoform, or with tags, fused parts or gaps limits assumed): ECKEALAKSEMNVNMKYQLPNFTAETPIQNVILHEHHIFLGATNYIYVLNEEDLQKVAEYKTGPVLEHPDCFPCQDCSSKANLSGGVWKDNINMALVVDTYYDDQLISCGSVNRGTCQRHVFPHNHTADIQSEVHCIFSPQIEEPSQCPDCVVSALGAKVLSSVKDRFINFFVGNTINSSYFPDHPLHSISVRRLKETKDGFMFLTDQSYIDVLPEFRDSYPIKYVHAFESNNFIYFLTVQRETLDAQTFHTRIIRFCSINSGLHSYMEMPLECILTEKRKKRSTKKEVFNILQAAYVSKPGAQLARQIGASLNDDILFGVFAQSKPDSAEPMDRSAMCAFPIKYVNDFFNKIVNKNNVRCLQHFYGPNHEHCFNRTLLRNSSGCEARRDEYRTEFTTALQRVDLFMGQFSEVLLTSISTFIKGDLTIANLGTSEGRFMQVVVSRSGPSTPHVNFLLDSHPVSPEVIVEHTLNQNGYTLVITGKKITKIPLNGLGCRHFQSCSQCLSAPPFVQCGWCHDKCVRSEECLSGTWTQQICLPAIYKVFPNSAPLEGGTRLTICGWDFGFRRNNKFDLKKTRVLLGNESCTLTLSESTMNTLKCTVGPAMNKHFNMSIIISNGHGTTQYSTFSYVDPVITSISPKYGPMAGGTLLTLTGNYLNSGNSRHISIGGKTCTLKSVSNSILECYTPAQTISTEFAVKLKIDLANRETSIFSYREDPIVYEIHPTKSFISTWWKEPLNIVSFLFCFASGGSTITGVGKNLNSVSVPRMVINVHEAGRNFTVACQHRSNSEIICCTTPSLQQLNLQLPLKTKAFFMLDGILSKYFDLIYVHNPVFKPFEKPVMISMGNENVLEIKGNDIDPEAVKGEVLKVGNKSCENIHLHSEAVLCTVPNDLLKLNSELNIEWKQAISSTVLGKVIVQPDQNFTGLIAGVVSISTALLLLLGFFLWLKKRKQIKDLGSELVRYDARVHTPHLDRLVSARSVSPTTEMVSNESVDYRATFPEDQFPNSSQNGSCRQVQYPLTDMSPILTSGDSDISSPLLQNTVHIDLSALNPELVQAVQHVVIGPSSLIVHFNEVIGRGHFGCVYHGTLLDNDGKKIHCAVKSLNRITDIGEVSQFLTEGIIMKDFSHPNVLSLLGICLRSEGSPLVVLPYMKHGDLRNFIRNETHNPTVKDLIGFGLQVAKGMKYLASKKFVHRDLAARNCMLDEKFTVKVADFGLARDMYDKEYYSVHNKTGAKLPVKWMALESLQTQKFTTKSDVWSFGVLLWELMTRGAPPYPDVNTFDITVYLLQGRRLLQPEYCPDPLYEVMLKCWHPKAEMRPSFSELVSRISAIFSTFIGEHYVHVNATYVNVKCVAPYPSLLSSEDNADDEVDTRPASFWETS
Protocol Text: cell-based or functional assay

Binder: P114AR7P95-G7 (designed binder, not shown: small tags and cut ends) LPAPKNLVVSRVTEDSARLSWTAPDAAFDSFWIRYFELLSTGEAIVLTVPGSERSYDLTGLKPGTEYVVNIMGVKGGSISPPLSAIFTT
Unit String: nM
pMet inhibition in H441 cells IC50: 659

Binder: P114AR7P93-G8 (designed binder, not shown: small tags and cut ends) LPAPKNLVVSRVTEDSARLSWTAPDAAFDSFWIRYFEFLGSGEAIVLTVPGSERSYDLTDLKPGTEYGVTINGVKGGRVSTPLSAIFTT
Unit String: nM
pMet inhibition in H441 cells IC50: 460
